- System: Pseudomonas aeruginosa
- method_summary: MIC against Gram-negative bacteria: Pseudomonas aeruginosa
- Type: cell-based
- protocol_conditions: Pseudomonas aeruginosa; 5×10^5 CFU/mL; 10 h cultivation at 37° C.
Provide the recorded MIC against P. aeruginosa for the entries that follow.
Give bare numbers, in µg/mL.

Example substances with recorded MIC against P. aeruginosa:
PRT1361 (SELICPNDCFDRGRCINGTCYCEEGFTGEDCG; listed as Homo sapiens) = 25
PRT1377 (PASACPGGCGPRELCRAGQCVCVEGFRGPDC; listed as Homo sapiens) = 12.5
PRT1393 (EERSCHSHCTEHGQCKDGKCECSPGWEGDHCT; listed as Homo sapiens) = 25
PRT1410 (IEGCPGLCNSNGRCTLDQNGWHCVCQPGWRGAGCD; listed as Homo sapiens) = 25
PRT1422 (DVDDCILEPSPCPQRCVNTQGGFECHCYPNYDLVDGECV; listed as Homo sapiens) = 12.5

Hey, can you go through the list below and give me MIC against P. aeruginosa for every item?
1. PRT1475 (DINECKDPSNINGGCSQICDNTPGSYHCSCKNGFVMLSNKKDCK; listed as Homo sapiens)
2. PRT1366 (ERLACPGACSGHGRCVDGRCLCHEPYVGADCG; listed as Homo sapiens)
3. PRT1374 (GVRQCPNDCSQHGVCQDGVCICWEGYVSEDC; listed as Homo sapiens)

-- reply
12.5
12.5
25

* * *

Exercise: for every item that follows, state its recorded MIC C. diversus.
- Test system: Citrobacter diversus
- method_summary: MIC against Gram-negative bacteria: Citrobacter diversus
- Type: cell-based
- protocol_conditions: 96-well plate, 5×10^5 CFU/mL, 37° C., 10 h
- Protocol: 1. Gram-negative bacteria, such as E. coli BL21, Pseudomonas aeruginosa, Klebsiella pneumonia, Enterobacter cloacae, Aeromonas hydrophila, Citrobacter diversus, Moraxella catarrhalis, Proteus mirabilis, Proteus vulgaris, Serratia marcescens, etc were streaked on solid LB medium and cultured respectively. Then, typical clones were picked, inoculated into common liquid LB medium respectively, and cultured at 37° C. with shaking at 185 rpm until the McFarland specific turbidity was 0.5. […]
Give the value; after it, write the unit.

PRT641 (QAEECGILNGCENGRCVRVQEGYTCDCFDGYHLDTAK; listed as Homo sapiens) = 12.5 µg/mL
PRT615 (CDCHALGSTNGQCDIRTGQCECQPGITGQHCERCEVNHFGFGPEGCKP; listed as Homo sapiens) = 50 µg/mL
PRT636 (DINECEHPGLCGPQGECLNTEGSFHCVCQQGFSISADGRTCE; listed as Homo sapiens) = 50 µg/mL

Pending substance:
-- ask Param readout = MIC C. diversus; param system = Citrobacter diversus; param query = PRT720 (INECHDPSISGCDHNCTDTLTSFYCSCRPGYKLMSDKRTCV; listed as Homo sapiens) ; response: value
-- reply 25 µg/mL

* * *

- Test system: Proteus vulgaris
- method_summary: MIC against Gram-negative bacteria: Proteus vulgaris
- Format: cell-based
- protocol_conditions: Proteus vulgaris; 5×10^5 CFU/mL; 10 h cultivation at 37° C.
measured_metric: MIC against P. vulgaris (µg/mL)
Answers are plain numbers, in µg/mL.

The cases that follow already have their MIC against P. vulgaris on record.
PRT1383 (GTRSCPWDCGEGGRCVDGRCVCWPGYTGEDC; listed as Homo sapiens) = 12.5
PRT1421 (ATQSCNDLCEHFCVPNPDQPGSYSCMCETGYRLAADQHRCE; listed as Homo sapiens) = 12.5
PRT1479 (AKNECHPERTDGCQHFCLPGQESYTCSCAQGYRLGEDHKQCV; listed as Homo sapiens) = 50
PRT1413 (PTNQCIDVACSNHGTCITGTCICNPGYKGESCE; listed as Homo sapiens) = 25
PRT1415 (PRATCLDQCSGHGTFLPDTGLCSCDPSWTGHDCS; listed as Homo sapiens) = 25
PRT1466 (CSCHTTGAVNHICNSLTGQCVCQDASIAGQRCDQCKDHYFGFDPQTGRCQP; listed as Homo sapiens) = 12.5

Need MIC against P. vulgaris for each of these substances.
1. PRT1460 (CDCDTVGTRNGSILCDQIGGQCNCKRHVSGRQCNQCQNGFYNLQELDPDGCSP; listed as Homo sapiens)
2. PRT1396 (LGADCAKAACPVLCSGNGQYSKGTCQCYSGWKGAECD; listed as Homo sapiens)

-- reply
25
25

* * *

- Tested on: Proteus vulgaris
- method_summary: MIC against Gram-negative bacteria: Proteus vulgaris
- Format: cell-based
- protocol_conditions: 10 h cultivation at 37° C., 5×10^5 CFU/mL, two-fold serial dilution
measured_metric: MIC P. vulgaris (mg/L)
One number for each entry, in mg/L.

// below: answered substances
PRT1061 (KRDPCLRKYKDFCIHGECKYVKELRAPSCICHPGYHGERCH; listed as Homo sapiens) = 12.5
PRT1191 (AEHACTSNPCANGGSCHEVPSGFECHCPSGWSGPTCA; listed as Homo sapiens) = 12.5
PRT1062 (LQGNCSRLGCQHHCVPTLDGPTCYCNSSFQLQADGKTCK; listed as Homo sapiens) = 25
PRT1063 (ELSPCRINNGGCQDLCLLTHQGHVNCSCRGGRILQDDLTCR; listed as Homo sapiens) = 25

-- ask Entry PRT1183 (NIDDCLGQPCRNGGTCIDEVDAFRCFCPSGWEGELCD; listed as Homo sapiens) , system Proteus vulgaris: what MIC P. vulgaris was measured?
-- reply 25

* * *

- Tested on: E. coli BL21
- method_summary: MIC against Gram-negative bacteria: E. coli BL21
- Type: cell-based
- protocol_conditions: E. coli BL21; 5×10^5 CFU/mL; 10 h cultivation at 37° C.
measured_metric: MIC against E. coli BL21 (µg/mL)
Numbers only, in µg/mL.

Worked examples follow.
PRT1386 (GSRACPRDCRGRGRCENGVCVCNAGYSGEDC; listed as Homo sapiens) = 12.5
PRT1484 (DTDECLGTPCQQRCKNSIGSYKCSCRTGFHLHGNRHSCV; listed as Homo sapiens) = 12.5
PRT1414 (EVDCMDPTCSGRGVCVRGECHCSVGWGGTNCE; listed as Homo sapiens) = 12.5
PRT1391 (PLPVCQEQCSGHGTFLLDAGVCSCDPKWTGSDCS; listed as Homo sapiens) = 12.5
PRT1440 (DKDECSKDNGGCQHECVNTMGSYMCQCRNGFVLHDNKHDCK; listed as Homo sapiens) = 25

Please go through the list and note MIC against E. coli BL21 for each substance.
1. PRT1473 (SFLNCSLDNGGCTHYCLEEVGWRRCSCAPGYKLGDDLLQCH; listed as Homo sapiens)
2. PRT1407 (LKTMCPDQCSGHGTYLQESGSCTCDPNWTGPDCS; listed as Homo sapiens)
3. PRT1358 (SQLACPSDCNDQGKCVNGVCICFEGYAGADCS; listed as Homo sapiens)

-- reply
1: 25; 2: 25; 3: 12.5

Give MIC against E. coli BL21 for all substances that follow.
1. PRT1472 (LEHPCASLCCGHGTCIDGIGSFSCDCRSGWEGRFCQ; listed as Homo sapiens)
2. PRT1447 (GCGAGRWGPGCTKECPGCLHGGVCHDHDGECVCPPGFTGTRCE; listed as Homo sapiens)
3. PRT1450 (VPSNCDCLNGGTCVSNKYFSNIHWCNCPKKFGGQHCE; listed as Homo sapiens)
4. PRT1463 (CDCDTAGSLPGTVCNAKTGQCICKPNVEGRQCNKCLEGNFYLRQNNSFLCLP; listed as Homo sapiens)
5. PRT1477 (DIDECSENMCAQLCVNYPGGYTCYCDGKKGFKLAQDQKSCE; listed as Homo sapiens)
6. PRT1425 (DIDECENGGFCSGVCHNLPGTFECICGPDSALARHIGTDCD; listed as Homo sapiens)

-- reply
50
25
25
25
12.5
50

Batch of 7 substances: report MIC against E. coli BL21 for each.
1. PRT1396 (LGADCAKAACPVLCSGNGQYSKGTCQCYSGWKGAECD; listed as Homo sapiens)
2. PRT1361 (SELICPNDCFDRGRCINGTCYCEEGFTGEDCG; listed as Homo sapiens)
3. PRT1441 (EVDECSWPDHGGCEHRCVNTLGSYKCACDPGYELAADKKMCE; listed as Homo sapiens)
4. PRT1377 (PASACPGGCGPRELCRAGQCVCVEGFRGPDC; listed as Homo sapiens)
5. PRT1384 (STRTCPRDCRGRGRCEDGECICDTGYSGDDC; listed as Homo sapiens)
6. PRT1448 (ACREGRFGQSCQEQCPGISGCRGLTFCLPDPYGCSCGSGWRGSQCQ; listed as Homo sapiens)
7. PRT1446 (FLSPCVDDCGPYGQCKLLRTHNYLYAACECKAGWRGWGCT; listed as Homo sapiens)

-- reply
1. 12.5
2. 12.5
3. 25
4. 50
5. 12.5
6. 50
7. 12.5

Would you mind giving MIC against E. coli BL21 for every substance in the list below?
1. PRT1366 (ERLACPGACSGHGRCVDGRCLCHEPYVGADCG; listed as Homo sapiens)
2. PRT1412 (RASCPVLCSGNGQYMKGRCLCHSGWKGAECD; listed as Homo sapiens)

-- reply
1. 12.5
2. 50
